tested on: hMPV A2 TN/94-49; test: HMPV antiviral assay Method 2 (LLC-MK2 cells with CP-100-356, ATP-Lite); assay type: cell-based; settings: hMPV A2 TN/94-49, LLC-MK2 cells, 4 μM CP-100-356, Method 2
pEC50: −log10 of the molar value.
Reported pEC50 values follow for various compounds

Recorded pEC50, per entry:
[
  {
    "COMPOUND_STRING": "COc1cc(C(=O)NC[C@](O)(c2cc3c(c(-c4ccc5c(c4)OC(F)(F)O5)n2)OC[C@]3(C)C(N)=O)C2CC2)cc2cc(C)c(F)nc12",
    "pEC50": "> 6.70"
  },
  {
    "COMPOUND_STRING": "COc1cc(C(=O)NC[C@@](O)(c2ccccc2)c2cc3c(c(-c4cc(Cl)c(F)cc4F)n2)OC[C@]3(C)C(N)=O)cc2oc(C3CC3)nc12",
    "pEC50": "> 6.70"
  },
  {
    "COMPOUND_STRING": "COc1cc(C(=O)NC[C@@](O)(c2cccc(F)c2)c2cc3c(c(-c4cc(C(F)(F)F)c(F)cc4F)n2)OC[C@]3(C)C(N)=O)cc2cn(C3CC3)nc12",
    "pEC50": "> 6.70"
  },
  {
    "COMPOUND_STRING": "C[C@]1(C(N)=O)COc2c1cc([C@@](O)(CNC(=O)c1cc(F)c3nn(C4CC4)cc3c1)c1ccccc1)nc2-c1cc(Cl)c(F)cc1F",
    "pEC50": "> 6.70"
  },
  {
    "COMPOUND_STRING": "COc1cc(OC)c2cc(C(=O)NC[C@@](O)(c3ccccc3)c3cc4c(c(-c5cc(Cl)c(F)cc5F)n3)OC[C@]4(C)C(N)=O)[nH]c2c1",
    "pEC50": "< 6.70"
  },
  {
    "COMPOUND_STRING": "COc1cc(C(=O)NC[C@@](O)(c2cc[nH]c(=O)c2)c2cc3c(c(-c4cc(Cl)c(F)cc4F)n2)OC[C@]3(C)C(N)=O)cc2cn(C3CC3)nc12",
    "pEC50": "< 6.70"
  }
]

stdin: Given the compound COc1cc(C(=O)NC[C@@](O)(c2cccc(F)c2)c2cc3c(c(-c4ccc(F)c(Cl)c4Cl)n2)OC[C@]3(C)C(N)=O)cc2cn(C3CC3)nc12 , what is its reported pEC50?
stdout: > 6.70

stdin: Given the compound COc1cc(C(=O)NC[C@@](O)(c2cccc(F)c2)c2cc3c(c(-c4cc(C(F)(F)F)c(F)cc4F)n2)OC[C@]3(C)C(N)=O)cc2cn(C3(F)CC3)nc12 , what is its reported pEC50?
stdout: > 6.70

stdin: Given the compound COc1cc(C(=O)NC[C@@](O)(c2cccc(C#N)c2)c2cc3c(c(-c4cc(Cl)c(F)cc4F)n2)OC[C@]3(C)C(N)=O)cc2cn(C3CC3)nc12 , what is its reported pEC50?
stdout: > 6.70

stdin: Given the compound COc1cccc([C@](O)(CNC(=O)c2cc(OC)c3nn(C4CC4)cc3c2)c2cc3c(c(-c4cccc(Cl)c4Cl)n2)OC[C@]3(C)C(N)=O)n1 , what is its reported pEC50?
stdout: > 6.70

stdin: Given the compound COc1cc(F)c(-c2nc([C@@](O)(CNC(=O)c3cc(OC)c4nn(C5(F)CC5)cc4c3)c3ccccc3)cc3c2OC[C@]3(C)C(N)=O)cc1F , what is its reported pEC50?
stdout: < 6.70

stdin: Given the compound COc1cc(C(=O)NC[C@@](O)(c2ccccc2)c2cc3c(c(-c4cccc(F)c4F)n2)OC[C@]3(C)C(N)=O)cc2cn(C3(F)CC3)nc12 , what is its reported pEC50?
stdout: > 6.70

stdin: Given the compound C[C@]1(C(N)=O)COc2c1cc([C@@](O)(CNC(=O)c1cc(OC(F)F)c3ncc(Cl)cc3c1)c1ccccc1)nc2-c1cc(Cl)c(F)cc1F , what is its reported pEC50?
stdout: > 6.70
